# Subject of test: T1, cereblon (E3 ubiquitin ligase)
# T1 chain: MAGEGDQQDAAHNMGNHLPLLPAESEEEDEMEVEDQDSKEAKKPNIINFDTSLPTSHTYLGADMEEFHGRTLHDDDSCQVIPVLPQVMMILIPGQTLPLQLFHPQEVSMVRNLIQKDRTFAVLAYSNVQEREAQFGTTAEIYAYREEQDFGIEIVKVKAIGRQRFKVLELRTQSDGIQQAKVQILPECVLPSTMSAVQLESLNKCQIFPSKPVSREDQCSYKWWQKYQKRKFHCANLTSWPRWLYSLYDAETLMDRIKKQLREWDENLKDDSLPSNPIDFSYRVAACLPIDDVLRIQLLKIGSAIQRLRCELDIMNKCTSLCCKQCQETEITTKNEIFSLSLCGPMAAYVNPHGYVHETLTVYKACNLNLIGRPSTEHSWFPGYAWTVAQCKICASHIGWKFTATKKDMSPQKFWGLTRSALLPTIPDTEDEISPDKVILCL
# Test: SPR imaging (PlexArray HT), cereblon printed on chip; ternary complex of cereblon, FoxP3 and P-FoxP3 (recombinant FoxP3 present)
Primed or numbered codes have the meaning given here. PEG4′ = polyethylene glycol linker with 4 oxyethylene units
Measure name: pKd
pKd (log units): -log10 of the concentration in mol/L.

Given item {pomalidomide-PEG4′}-RDFQSFRKMWPFFAM-OH (Conjugate of the P60 peptide with the small molecule pomalidomide; also called P-FoxP3; PROTAC for FoxP3) [Proteolysis-targeting chimera (PROTAC) targeting FoxP3 (Pomalidomide-PEG4-RDFQSFRKMWPFFAM)] , the value recorded as its pKd is 6.36
